assay: Cell growth inhibition, CellTiter-Glo Luminescent Cell Viability Assay; format: cell-based; conditions: MOLM-13, 96 h, read-out: Cell Growth Inhibition IC50 (μM) MOLM13, MOLM13 cells, 4 days, CellTiter-Glo
Value type: IC50 (µM)
// units = µM; emit number, no label

Would you please look over these solved cases?
compound="CNC(=O)N[C@H]1CCC[C@@H]1C1(C2CCN(CC3CN(c4ccc(S(=O)(=O)C5CC5)cc4)C3)CC2)CN(C)Cc2ccccc21 (mixture of isomers)" units_symbol=µM reported=0.53
compound="CNC(=O)N[C@H]1CCC[C@@H]1C1(C2CCN(CC3CN(c4ccc(S(=O)(=O)C5CC5)cc4)C3)CC2)CN(C(C)C)Cc2ccccc21 (mixture of isomers)" units_symbol=µM reported=48.8
compound="CN1Cc2ccccc2C(C2CCN(CC3CN(c4ccc(S(=O)(=O)c5ccncc5)cc4)C3)CC2)([C@H]2CCC[C@@H]2OC(N)=O)C1 (mixture of isomers)" units_symbol=µM reported=0.236

Form field IC50, entry CNC(=O)O[C@H]1CCC[C@@H]1C(C#N)(c1ccccc1)C1CCN(CC2(C)CN(c3ccc(S(=O)(=O)c4cnn(C)c4)cc3)C2)CC1 (mixture of isomers) : 5.01
